I'd appreciate it if you could supply Lowest effective concentration values for the items below.
System: Calliphoridae
Experiment: In vitro insecticidal activity in bovine serum against Blowfly larvae
Type: functional
Write the numeric value and follow it with the unit.

Lowest effective concentration reported for this compound O=C(/C=C(\[O-])c1ccc(C(F)(F)F)cc1)C(F)(F)C(F)(F)C(F)(F)F.[Na+] : 35 p.p.m.

Lowest effective concentration reported for this compound O=C(/C=C(\[O-])c1cc(Cl)cc(Cl)c1)C(F)(F)C(F)F.[Na+] : 25 p.p.m.

Lowest effective concentration reported for this compound O=C(/C=C(\[O-])c1ccc(F)c(F)c1)C(F)(F)C(F)(F)C(F)(F)F.[Na+] : 30 p.p.m.

Lowest effective concentration reported for this compound O=C(/C=C(\[O-])c1cc(Cl)cc(Cl)c1)C(F)(F)F.[Na+] : 20 p.p.m.

Lowest effective concentration reported for this compound O=C(/C=C(\[O-])c1cccc(C(F)(F)F)c1)C(F)(F)C(F)(F)C(F)(F)F.[Na+] : 40 p.p.m.

Lowest effective concentration reported for this compound O=C(/C=C(\[O-])c1ccc(Cl)cc1)C(F)(F)C(F)(F)C(F)(F)F.[Na+] : 50 p.p.m.

Lowest effective concentration reported for this compound O=C(/C=C(\[O-])c1cc(Cl)cc(Cl)c1)C(F)(F)C(F)(F)C(F)(F)F.[Na+] : 15 p.p.m.

Lowest effective concentration reported for this compound O=C(/C=C(\[O-])c1ccc(Cl)c(Cl)c1)C(F)(F)C(F)(F)C(F)(F)F.[Na+] : 30 p.p.m.

Lowest effective concentration reported for this compound O=C(/C=C(\[O-])c1cc(Br)cc(Br)c1)C(F)(F)C(F)(F)C(F)(F)F.[Na+] : 25 p.p.m.

Lowest effective concentration reported for this compound CNC(=O)Oc1cccc2c1OC(C)(C)C2 : 5 p.p.m.

Lowest effective concentration reported for this compound O=C(/C=C(\[O-])c1cc(Cl)cc(Cl)c1)C(F)(F)C(F)(F)F.[Na+] : 40 p.p.m.

Lowest effective concentration reported for this compound CC[C@H](C)[C@H]1O[C@]2(C=C[C@@H]1C)C[C@@H]1C[C@@H](C/C=C(\C)[C@@H](O[C@H]3C[C@H](OC)[C@@H](O[C@H]4C[C@H](OC)[C@@H](O)[C@H](C)O4)[C@H](C)O3)[C@@H](C)/C=C/C=C3\CO[C@@H]4[C@H](O)C(C)=C[C@@H](C(=O)O1)[C@]34O)O2 : 0.5 p.p.m.

Lowest effective concentration reported for this compound Cc1c(COC(=O)C2C(/C=C(\Cl)C(F)(F)F)C2(C)C)cccc1-c1ccccc1 (stereo not drawn) : 5 p.p.m.

---

I'd appreciate it if you could supply log10 of Lowest effective concentration values for the items below.
System: Stomoxys calcitrans
Experiment: In vitro insecticidal activity in bovine serum against adult stable fly
Type: functional
Base-10 log of Lowest effective concentration, unit p.p.m..

log10 of Lowest effective concentration reported for this compound O=C(/C=C(\[O-])c1ccc(C(F)(F)F)cc1)C(F)(F)C(F)(F)C(F)(F)F.[Na+] : 1.48

log10 of Lowest effective concentration reported for this compound Cc1c(COC(=O)C2C(/C=C(\Cl)C(F)(F)F)C2(C)C)cccc1-c1ccccc1 (stereo not drawn) : 1.40

log10 of Lowest effective concentration reported for this compound O=C(/C=C(\[O-])c1cc(Cl)cc(Cl)c1)C(F)(F)C(F)F.[Na+] : 1.30

log10 of Lowest effective concentration reported for this compound O=C(/C=C(\[O-])c1cc(Cl)cc(Cl)c1)C(F)(F)F.[Na+] : 1.40

log10 of Lowest effective concentration reported for this compound O=C(/C=C(\[O-])c1cc(Cl)cc(Cl)c1)C(F)(F)C(F)(F)F.[Na+] : 1.30

log10 of Lowest effective concentration reported for this compound O=C(/C=C(\[O-])c1ccc(F)c(F)c1)C(F)(F)C(F)(F)C(F)(F)F.[Na+] : 1.40

log10 of Lowest effective concentration reported for this compound CC[C@H](C)[C@H]1O[C@]2(C=C[C@@H]1C)C[C@@H]1C[C@@H](C/C=C(\C)[C@@H](O[C@H]3C[C@H](OC)[C@@H](O[C@H]4C[C@H](OC)[C@@H](O)[C@H](C)O4)[C@H](C)O3)[C@@H](C)/C=C/C=C3\CO[C@@H]4[C@H](O)C(C)=C[C@@H](C(=O)O1)[C@]34O)O2 [ABAMECTIN COMPONENT B1A] : 1.00

log10 of Lowest effective concentration reported for this compound O=C(/C=C(\[O-])c1cccc(C(F)(F)F)c1)C(F)(F)C(F)(F)C(F)(F)F.[Na+] : 1.54

log10 of Lowest effective concentration reported for this compound O=C(/C=C(\[O-])c1cc(Cl)cc(Cl)c1)C(F)(F)C(F)(F)C(F)(F)F.[Na+] : 1.40

log10 of Lowest effective concentration reported for this compound O=C(/C=C(\[O-])c1ccc(Cl)c(Cl)c1)C(F)(F)C(F)(F)C(F)(F)F.[Na+] : 1.40

log10 of Lowest effective concentration reported for this compound O=C(/C=C(\[O-])c1ccc(Cl)cc1)C(F)(F)C(F)(F)C(F)(F)F.[Na+] : 1.40

log10 of Lowest effective concentration reported for this compound CNC(=O)Oc1cccc2c1OC(C)(C)C2 [CARBOFURAN] : 0.00

log10 of Lowest effective concentration reported for this compound O=C(/C=C(\[O-])c1cc(Br)cc(Br)c1)C(F)(F)C(F)(F)C(F)(F)F.[Na+] : 1.40
